- ASSAYED_TARGET: T1, hIL-4R on cells (STAT6-transfected HEK293, TF1, TF1/A12) (human, UniProt P24394 26-825)
- T1 sequence (looked up): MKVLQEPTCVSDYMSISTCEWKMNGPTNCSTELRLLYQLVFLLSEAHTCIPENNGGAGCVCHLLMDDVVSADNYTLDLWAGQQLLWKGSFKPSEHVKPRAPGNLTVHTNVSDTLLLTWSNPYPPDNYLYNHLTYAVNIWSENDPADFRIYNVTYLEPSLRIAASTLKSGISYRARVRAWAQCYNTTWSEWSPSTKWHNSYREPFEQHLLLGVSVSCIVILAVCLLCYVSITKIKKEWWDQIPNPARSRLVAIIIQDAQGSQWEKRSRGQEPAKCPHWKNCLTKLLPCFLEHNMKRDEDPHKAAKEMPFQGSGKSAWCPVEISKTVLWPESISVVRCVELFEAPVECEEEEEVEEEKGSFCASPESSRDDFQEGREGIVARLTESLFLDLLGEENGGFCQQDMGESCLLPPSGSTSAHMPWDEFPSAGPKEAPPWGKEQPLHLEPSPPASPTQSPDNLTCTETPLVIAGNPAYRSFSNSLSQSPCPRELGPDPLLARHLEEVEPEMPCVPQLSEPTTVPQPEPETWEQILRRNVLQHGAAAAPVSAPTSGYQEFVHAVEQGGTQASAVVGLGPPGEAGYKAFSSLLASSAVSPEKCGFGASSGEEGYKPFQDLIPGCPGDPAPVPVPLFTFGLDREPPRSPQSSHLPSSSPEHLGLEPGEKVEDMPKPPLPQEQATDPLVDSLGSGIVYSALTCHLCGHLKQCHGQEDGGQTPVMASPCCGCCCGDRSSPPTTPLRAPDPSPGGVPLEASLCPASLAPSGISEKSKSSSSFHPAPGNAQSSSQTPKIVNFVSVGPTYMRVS
- METHOD_DESCRIPTION: cell-based or functional assay
MEASURED_ENDPOINT: TF1/A12 Bioassay IC50 (proliferation, 20 pM hIL-4) (nM)
One number for each entry, in nM.

| BINDER | VAL |
| --- | --- |
| VAB 4D5-3 (antibody, V domains shown, Apparently tested with mouse constant region (anti-mouse IgG capture/detection)) VH: QVQLVQSGPEVKKPGASVKVSCKASGYTFTNYGISWVRQAPGQGLEWMGWISVYNGKTNYAQKFQGRVTMTTDTSTSTAYMDLRSLRSDDTAVYYCARGSGYDFDYWGQGTLVTVSS VL: AIQMTQSPSSLSASVGDRVTITCRASQGIRNALGWYQQKPGKAPKLLIFASSSLQSGVPSRFSGSGSGTDFTLTIRSLQPEDFAAYYCLQDYNYPYTFGQGTKLEIK | 21 |

TF1/A12 Bioassay IC50 (proliferation, 20 pM hIL-4) measured on VAB 10C1-5 (antibody, V domains shown, Apparently tested with mouse constant region (anti-mouse IgG capture/detection)) VH: QVQLVETGGDLVRPGGSLRLSCTASGFTLSDYYMSWIRQAPGKGLEWVSYIRRSGNTIYYADSVKGRFTISRDNAKNSLYLQMNSLRAEDTAVYYCARGGDWADVWGQGTTVTVSS VL: DIQMTQSPSSLSASVGDRVTITCRASQGISIYLAWFQQKPGKAPKSLIYAASSLQRGVPSKFSGSGSGTDFTLTISSLQPEDFATYYCQQYNSYPYTFGQGTKLEIK = 22.8

From: patent US20080160035A1
